Target: CCDC6-RET fusion expressing papillary thyroid carcinoma (TPC-1) cell line (Homo sapiens)
Construct: RET protein abundance (and therefore degradation) directly corresponds to luminescence intensity; CCDC6 (fusion partner, N-terminal part); endogenous in cells; host or cells: TPC-1 (papillary thyroid carcinoma), parental; the other entry of the earlier key: CCDC6 (Q16204, Coiled-coil domain-containing protein 6)
Sequence (P07949 with tags, fused parts or gaps): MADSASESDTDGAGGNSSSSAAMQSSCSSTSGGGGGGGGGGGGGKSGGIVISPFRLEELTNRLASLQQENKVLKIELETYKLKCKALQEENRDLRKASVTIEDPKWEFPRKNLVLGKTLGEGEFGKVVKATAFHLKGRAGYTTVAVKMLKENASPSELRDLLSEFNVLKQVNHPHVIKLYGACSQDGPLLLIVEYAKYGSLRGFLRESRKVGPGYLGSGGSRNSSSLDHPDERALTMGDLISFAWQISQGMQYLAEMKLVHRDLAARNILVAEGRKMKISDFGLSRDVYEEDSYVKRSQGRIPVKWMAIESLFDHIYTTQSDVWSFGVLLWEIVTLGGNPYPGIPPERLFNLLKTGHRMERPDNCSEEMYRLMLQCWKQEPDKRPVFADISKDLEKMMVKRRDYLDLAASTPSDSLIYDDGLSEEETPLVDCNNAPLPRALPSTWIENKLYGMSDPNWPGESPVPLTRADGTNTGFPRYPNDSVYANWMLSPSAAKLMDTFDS
Experiment: Cellular RET degradation assay (AlphaLISA Surefire Ultra, tRET) in TPC-1/CCDC6-RET cells
Assay type: cell-based
Conditions: TPC1, maximum % degradation (YMax) from 4-parameter logistic fit, parental TPC-1/CCDC6-RET cells, 24 hrs treatment, read-out: Cell Density TPC-1/CCDC6-RET YMax (%)
Method: Cellular RET degradation compound potency was determined using the bead-based luminescent amplification assay—AlphaLISA Surefire Ultra Detection Kit (Perkin-Elmer). […] Donor bead addition was performed in the dark and incubated for >1 hr before AlphaLISA luminescence was measured on an Envision plate reader with an Alphascreen aperture at RT (excitation 680 nm, emission 615 nm). RET protein abundance (and therefore degradation) directly corresponds to luminescence intensity. […]
Result Type: Dmax (%)

1. COCc1ccc(NC(=O)c2c(C#CC3CCN(C(=O)CN4CCC5(CC4)CCN(c4ccc6c(c4)CN(C4CCC(=O)NC4=O)C6=O)CC5)CC3)c(C(C)C)n3ncnc(N)c23)cc1 (centres unmarked) : 79.1
2. COCc1ccc(NC(=O)c2c(C#CC3CCN(C(=O)CCCCCCN4CCN(c5ccc6c(c5)C(=O)N(C5CCC(=O)NC5=O)C6)CC4)CC3)c(C(C)C)n3ncnc(N)c23)cc1 (centres unmarked) : 91.8
3. COCc1ccc(NC(=O)c2c(C#CC3CCN(C(=O)CCCCN4CCN(c5ccc6c(c5)C(=O)N(C5CCC(=O)NC5=O)C6)CC4)CC3)c(C(C)C)n3ncnc(N)c23)cc1 (centres unmarked) : 97.3
4. COCc1ccc(NC(=O)c2c(C#CC3CCN(C(=O)CCCCCCN4CCC(c5ccc6c(c5)C(=O)N(C5CCC(=O)NC5=O)C6)CC4)CC3)c(C(C)C)n3ncnc(N)c23)cc1 (centres unmarked) : 97.6
5. COCc1ccc(NC(=O)c2c(C#CC3CCN(C(=O)CCCCCCN4CCC(c5ccc6c(c5)CN(C5CCC(=O)NC5=O)C6=O)CC4)CC3)c(C(C)C)n3ncnc(N)c23)cc1 (centres unmarked) : 87.4

====

biological target: CCDC6-RET fusion expressing papillary thyroid carcinoma (TPC-1) cell line (Homo sapiens); construct: RET protein abundance (and therefore degradation) directly corresponds to luminescence intensity; CCDC6 (fusion partner, N-terminal part); endogenous in cells; host or cells: TPC-1 (papillary thyroid carcinoma), parental; the other entry of the earlier key: CCDC6 (Q16204, Coiled-coil domain-containing protein 6); test: Cellular RET degradation assay (AlphaLISA Surefire Ultra, tRET) in TPC-1/CCDC6-RET cells; type: cell-based; details: TPC1, maximum % degradation (YMax) from 4-parameter logistic fit, parental TPC-1/CCDC6-RET cells, 24 hrs treatment, read-out: Cell Density TPC-1/CCDC6-RET YMax (%)
Result Type: Dmax (%)

1. COCc1ccc(NC(=O)c2c(C#CC3CCN(C(=O)CCCCCCN4CCN(c5ccc6c(c5)CN(C5CCC(=O)NC5=O)C6=O)CC4)CC3)c(C(C)C)n3ncnc(N)c23)cc1 (centres unmarked) [Example 1] : 84.5
2. COCc1ccc(NC(=O)c2c(C#CC3CCN(C(=O)CCN4CCC5(CC4)CCN(c4ccc6c(c4)CN(C4CCC(=O)NC4=O)C6=O)CC5)CC3)c(C(C)C)n3ncnc(N)c23)cc1 (centres unmarked) [Example 10] : 78.9
3. COCc1ccc(NC(=O)c2c(C#CC3CCN(C(=O)CCCCN4CCN(c5ccc6c(c5)CN(C5CCC(=O)NC5=O)C6=O)CC4)CC3)c(C(C)C)n3ncnc(N)c23)cc1 (centres unmarked) [Example 5] : 79.9
4. COCc1ccc(NC(=O)c2c(C#CC3CCN(C(=O)CCCCN4CCC(c5ccc6c(c5)C(=O)N(C5CCC(=O)NC5=O)C6)CC4)CC3)c(C(C)C)n3ncnc(N)c23)cc1 (centres unmarked) [Example 7] : 90.1
5. COCc1ccc(NC(=O)c2c(C#CC3CCN(C(=O)CCCCN4CCC(c5ccc6c(c5)CN(C5CCC(=O)NC5=O)C6=O)CC4)CC3)c(C(C)C)n3ncnc(N)c23)cc1 (centres unmarked) [Example 8] : 86.3

Data origin: patent US20250376474A1
